# Test system: Corticotropin-releasing factor receptor 1 (Homo sapiens, UniProt P34998)
# Protocol summary: Inhibition of Corticotropin releasing factor receptor 1-stimulated cAMP production
# Format: functional
Property: IC50 (nM)

# count of solved cases: 2
1) CCN(CCOC)c1cc(C)nc2c(-c3ccc(Cl)cc3Cl)nn(C)c12 15
2) CCCN(CCOC)c1cc(C)nc2c(-c3ccc(Cl)cc3Cl)nn(C)c12 36

a: COCCN(CCOC)c1cc(C)nc2c(-c3ccc(Cl)cc3Cl)nn(C)c12
b: CCCN(CCO)c1cc(C)nc2c(-c3ccc(Cl)cc3Cl)nn(C)c12
c: CCCCN(CC1CC1)c1cc(C)nc2c(-c3ccc(Cl)cc3Cl)nn(C)c12
d: CCCCN(CCCC)c1cc(C)nc2c(-c3ccc(Cl)cc3Cl)nn(C)c12
Thanks in advance: please rank these 4 entries by IC50, highest to lowest. Rank them, then answer with their labels in that order.
a, b, d, c
(a: 38 nM, b: 18 nM, d: 5 nM, c: 3 nM)

* * *

Target protein (sequence): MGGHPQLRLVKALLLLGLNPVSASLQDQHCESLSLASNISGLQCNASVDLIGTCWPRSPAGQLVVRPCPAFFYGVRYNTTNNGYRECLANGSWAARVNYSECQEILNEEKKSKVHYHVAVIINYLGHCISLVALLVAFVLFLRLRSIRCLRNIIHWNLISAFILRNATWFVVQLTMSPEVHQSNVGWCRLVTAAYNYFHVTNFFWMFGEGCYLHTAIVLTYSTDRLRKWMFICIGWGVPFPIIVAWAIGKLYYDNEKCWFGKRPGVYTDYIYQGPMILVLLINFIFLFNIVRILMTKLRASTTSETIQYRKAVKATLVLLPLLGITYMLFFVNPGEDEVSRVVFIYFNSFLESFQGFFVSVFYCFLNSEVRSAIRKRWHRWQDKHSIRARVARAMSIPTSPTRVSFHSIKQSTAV
pKi: −log10 of the molar value.
Property: pKi

1) CCCCCCN(CC1CC1)c1cc(C)nc2c(-c3ccc(Cl)cc3Cl)nn(C)c12 9.00
2) CCCCN(CCSC)c1cc(C)nc2c(-c3ccc(Cl)cc3Cl)nn(C)c12 8.85
3) CCCN(CCOC)c1cc(C)nc2c(-c3ccc(Cl)cc3Cl)nn(C)c12 8.29

A: COCCN(CCOC)c1cc(C)nc2c(-c3ccc(Cl)cc3Cl)nn(C)c12
B: CCCCNc1cc(C)nc2c(-c3ccc(Cl)cc3Cl)nn(C)c12
C: CCCCN(CCCC)c1cc(C)nc2c(-c3c(C)cc(C)cc3Cl)nn(C)c12
D: CCCN(CCO)c1cc(C)nc2c(-c3ccc(Cl)cc3Cl)nn(C)c12
E: COCCN(C)c1cc(C)nc2c(-c3ccc(Cl)cc3Cl)nn(C)c12
List by increasing pKi. Show the ranking through the labels, in the order asked for.
B, E, A, D, C
(B: 6.77, E: 7.49, A: 8.09, D: 8.36, C: 8.68)

P: CCCCN(CCOC)c1cc(C)nc2c(-c3ccc(Cl)cc3Cl)nn(C)c12
Q: CCCCN(Cc1ccncc1)c1cc(C)nc2c(-c3ccc(Cl)cc3Cl)nn(C)c12
# return whichever of P and Q has the smaller pKi Answer format: the label of the selected item.
Q
(Q: 7.17, P: 7.98)

P: CCCCN(c1cc(C)nc2c(-c3ccc(Cl)cc3Cl)nn(C)c12)C(CC)CC
Q: CCCCN(CC1CC1)c1cc(C)nc2c(-c3ccc(Cl)cc3Cl)nn(C)c12
R: CCCCCCN(CCOC)c1cc(C)nc2c(-c3ccc(Cl)cc3Cl)nn(C)c12
S: CCN(CCCOC)c1cc(C)nc2c(-c3ccc(Cl)cc3Cl)nn(C)c12
Order these by pKi, descending, and give the full ranking. Sort the labels as requested; that list is your answer.
Q, R, P, S
(Q: 8.89, R: 8.40, P: 8.15, S: 7.90)

a: CCCCN(CCCC)c1cc(C)nc2c(-c3c(C)cc(C)cc3C)nn(C)c12
b: COCCN(CC(C)C)c1cc(C)nc2c(-c3ccc(Cl)cc3Cl)nn(C)c12
Select one. Lower pKi: a or b Which one? Tell me its label.
b

* * *

The following are reported pKi results, target or system Corticotropin-releasing factor receptor 1 (Homo sapiens, UniProt P34998).
pKi: −log10 of the molar value.
Property: pKi

P: CCN(CCOC)c1cc(C)nc2c(-c3ccc(Cl)cc3Cl)nn(C)c12
Q: CCCCN(CCCC)c1cc(C)nc2c(-c3ccc(Cl)cc3)nn(C)c12
R: CCCCN(CCc1ccncc1)c1cc(C)nc2c(-c3ccc(Cl)cc3Cl)nn(C)c12
Put the entries in order of pKi, starting with the largest number. Give me the labels in the order the question wants.
P, R, Q

Numbers sourced from ChEMBL document CHEMBL1136253.
